self-splicing fitness (ln) values for the sequences below.
assay: self-splicing fitness, log relative to wild type (ln ratio); higher = more splicing; Tetrahymena group I intron in knt gene, E. coli kanamycin selection, DiMSum; sequences stand for … in CUCUCU…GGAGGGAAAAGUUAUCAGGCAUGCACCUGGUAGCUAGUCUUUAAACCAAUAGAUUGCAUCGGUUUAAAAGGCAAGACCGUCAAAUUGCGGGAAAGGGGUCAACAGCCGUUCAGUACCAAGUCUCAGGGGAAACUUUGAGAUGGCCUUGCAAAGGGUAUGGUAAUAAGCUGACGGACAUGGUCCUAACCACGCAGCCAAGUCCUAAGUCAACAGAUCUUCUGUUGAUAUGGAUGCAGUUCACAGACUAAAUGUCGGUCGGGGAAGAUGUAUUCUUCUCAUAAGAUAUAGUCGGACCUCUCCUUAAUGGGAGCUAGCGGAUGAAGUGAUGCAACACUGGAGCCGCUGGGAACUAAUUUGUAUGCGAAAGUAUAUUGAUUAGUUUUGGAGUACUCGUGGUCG; conditions: 30 °C;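 note: selection with 25 µg/mL kanamycin versus none on LB agar overnight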
metric: self-splicing fitness (ln)

{"columns": ["chain_sequence", "metric", "measured_result"],
 "data": [
  ["GACAAGCAAUAUUACGACCG", "self-splicing fitness (ln)", -0.672],
  ["CAGAAGCAAUAUUACGUAGU", "self-splicing fitness (ln)", -4.18],
  ["GAAGAGCAAUAUUACGUCUA", "self-splicing fitness (ln)", -1.86],
  ["CCACAGCAAUAUUACGAUCG", "self-splicing fitness (ln)", -0.326],
  ["GUGUAGCAAUAUUACGGUCA", "self-splicing fitness (ln)", -1.36],
  ["UUUUAGCAAUAUUACGAUAC", "self-splicing fitness (ln)", -3.18],
  ["AAUCAGCAAUAUUACGAUCC", "self-splicing fitness (ln)", 0.138],
  ["GCAUAGCAAUAUUACGUGGU", "self-splicing fitness (ln)", -3.13]
]}

Hey, just so you know, these numbers are from the supplement of paper PMC7877785.
